Target: T1, terbium-labelled SNAP-CXCR4 on HEK-293 cells (Cisbio C1TT1CXCR4) (human, UniProt P61072 1-352 (Pan troglodytes entry), terbium label on the SNAP tag)
T1 construct: Bought assay-ready cells; also called CXCR4 expressing cells; not shown: SNAP tag
T1 sequence (P61072 whole entry): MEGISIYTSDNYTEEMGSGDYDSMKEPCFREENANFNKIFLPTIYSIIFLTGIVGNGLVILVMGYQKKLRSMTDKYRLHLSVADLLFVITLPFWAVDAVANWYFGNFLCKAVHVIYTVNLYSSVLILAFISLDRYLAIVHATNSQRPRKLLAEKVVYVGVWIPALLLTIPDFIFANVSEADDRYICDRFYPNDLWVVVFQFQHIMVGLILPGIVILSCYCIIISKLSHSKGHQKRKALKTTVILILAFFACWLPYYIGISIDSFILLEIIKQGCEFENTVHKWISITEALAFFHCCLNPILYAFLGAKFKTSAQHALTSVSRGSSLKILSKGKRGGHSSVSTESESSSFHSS
Experiment: TR-FRET (Tag-lite) competition with AlexaFluor 647-CXCL12 on terbium-labelled SNAP-CXCR4 HEK-293 cells
# maps each entry to its % Max Inhibition
Readout type: % Max Inhibition (%)

| Binder | Readout type | Measured number |
| --- | --- | --- |
| CL-82523 (antibody, human IgG4 S228P, kappa, V domains shown, Tested in human IgG4-PE format) VH: EVQLVESGGGLVQPGGSLRLSCAASGFTFSNYAMSWVRQAPRKGLEWVSVISGSGGRTNYAGSVKGRFSITRDNSKNTLYLQMNSLRAEDTAVYYCVKGQLERRYYYYYGMDVWGQGITVTVSS VL: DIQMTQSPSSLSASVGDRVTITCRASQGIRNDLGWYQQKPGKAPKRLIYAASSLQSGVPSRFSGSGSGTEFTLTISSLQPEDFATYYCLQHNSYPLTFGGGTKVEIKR | % Max Inhibition | 101 |
| CL-82558 (antibody, human IgG4 S228P, kappa, V domains shown, Tested in human IgG4-PE format; also called CL-82558 (IgG4-PE format)) VH: QVQLQESGPGLVKPSQTLSLTCTVSGGSISSGGYYWSWIRQVPGKGLEWIGYISYSGNTFYSPSLKSRVTISVDTSENKFSLRLTSVTAADTAVYFCARDRRIPMLRGVKGYYYGLDVWGQGTTVTVSS VL: DIVMTQSPLSLPVIPGEPASISCRSSQSLLHRNGYKYLDWYLQKPGQSPQLLIYLGSNRASGVPARFSGSGSGTDFTLKISRVEAEDVGVYYCMQALQTPWTFGQGTKVEIKR | % Max Inhibition | 101 |
| CL-82571 (antibody, human IgG4 S228P, kappa, V domains shown, Tested in human IgG4-PE format) VH: EVQLVESGGGLVQPGGSLKLSCAASGFTFSGSAMHWVRQASGKGLEWVGRIRSKANKYATAYAASVKGRFTISRDDSKNTAYVQMKSLKTEDTAVYYCTWELSNYDILTGFYYGMDVWGQGTTVTVSS VL: DIQMTQSPSTLSASVGDRVTITCRASQSISNWLAWYQQKPGKAPKVLIYKASSLESGVPSRFSGSGSGTEFTLTISSLQPDDFATYYCQQYNSFSWTFGQGTKVEIKR | % Max Inhibition | 96 |
| CL-82458 (antibody, human IgG4 S228P, kappa, V domains shown, Tested in human IgG4-PE format; also called CL-82458 (IgG4-PE format)) VH: EVQLVESGGDLVQPGGSLRLSCAASGFTFYSYAMNWVRQAPGKGLKWVSGISGSGDITYYADSVKGRFTISRDNSKNTLYLQMHSLRPEDTAIYYCAKGQLERRYYKYYGMDVWGQGTTVTVSS VL: DIQMTQSPSSLSASVGDRVTITCRANQGIRNDLGWYQQKPGKAPKRLIYGASSLKSGVPSRFSGSGSGTEFTLTISSLQPEDFATYYCLQQNSYPLTFGGGTKVEIKR | % Max Inhibition | 99 |
| CL-82562 (antibody, human IgG4 S228P, kappa, V domains shown, Tested in human IgG4-PE format) VH: QVQLVESGGGVVQPGRSLRLSCTASGFTFSNYAMHWVRQAPGKGLEWVAVISYDGSNKYCADSVKGRFTISRDNSKNTLYLQMNSLRAEDTAVYYCARGPLARRHYYYYGMDVWGQGTTVTVSS VL: DIQMTQSPSSLSASVGDRVTITCRASQGIRNDLGWYQQKPGKAPKRLIYGASSLQSGVPSRFSGSGSGTEFTLTISSLQPEDFATYYCLQHNSYPRTFGQGTKVEIKR | % Max Inhibition | 100 |
| CL-82551 (antibody, human IgG4 S228P, kappa, V domains shown, Tested in human IgG4-PE format) VH: QVQLVQSGAEVKKPGASVKVSCKASGYTFTSYDINWVRQATGQGLEWMGWMNPNSGNTGYAQKFQGRVTMTRNTSISTAYMELSSLRSEDTAVYYCARGRGYYGSGSHYRGYYYYGLDVWGQGTTVTVSS VL: DIQMTQSPSTLSASVGDRVTITCRASQSISSWLAWYQQKPGKAPKVLIYKASSLKSGVPSRFSGSGSGTEFTLTVSSLQPDDFATYYCQQYNSYSWTFGQGTKVEIKR | % Max Inhibition | 98 |
| CL-82556 (antibody, human IgG4 S228P, kappa, V domains shown, Tested in human IgG4-PE format) VH: QVQLVESGGGVVQPGRSLRLSCAASGFTFYSYGMHWVRQAPGKGLEWVAVIWYGGTNKYYADSVKGRFTISRDNSKNTLYLQMNSLTAEDTAVYYCARGQLERRRGGLNIWGQGTMVTVSS VL: DIQMTQSPSSLSASVGDRVTITCRASQGVRDDLGWYQQKPGKAPKRLIYAASNLQSGVPSRFSGSGSGTEFTLTIGSLQPEDFATYYCLQHNSYPFTFGPGTKVDIKR | % Max Inhibition | 99 |
| CL-82517 (antibody, human IgG4 S228P, kappa, V domains shown, Tested in human IgG4-PE format) VH: EVQLVESGGGLVKPGGSLRLSCAASGFTFSSYSMNWVRQAPGKGLEWVSSISSSRRYIYYADSVKGRFTISRDNAKNSLYLQMNSLRAEDTAVYYCARAYGQVAPYYYYGMDVWGQGTTVTVSS VL: AIQLTQSPSSLSASVGDRVTITCRASQGISSALAWYQQKPGKAPKLLIYDASSLESGVPSRFSGSGSGTDFTLTISSLQPEDFATYYCQQFNSYPLTFGGGTKVEIKR | % Max Inhibition | 96 |
